- System: MDA-MB-231
- measurement.protocol: Antiproliferative activity against human MDA-MB-231 cells assessed as cell growth inhibition incubated for 72 hrs by MTT assay
- Format: functional, cell-based
- study.conditions: MDA-MB-231, 72 h
Output Criterion met for records whose IC50 is lower than 20 µM, Criterion not met for records at or above 20 µM.

Take the molecule `Cc1cc(C)c(CNC(=O)c2cc(-c3ccc(N4CCN(C(=O)CCCCCCCC(=O)N[C@H](C(=O)N5C[C@H](O)C[C@H]5C(=O)NCc5ccc(-c6scnc6C)cc5)C(C)(C)C)CC4)nc3)cc3c2cnn3C(C)C)c(=O)[nH]1` and say whether its IC50 is less than 20 µM.
Criterion met

Take the molecule Cc1cc(C)c(CNC(=O)c2cc(-c3ccc(N4CCN(C(=O)CCCCCCCCc5cn(CCOCCOCCOCCOCCOCCNc6cccc7c6C(=O)N(C6CCC(=O)NC6=O)C7=O)nn5)CC4)nc3)cc3c2cnn3C(C)C)c(=O)[nH]1 (stereo not drawn) and say whether its IC50 is less than 20 µM.
Criterion met

Take the molecule Cc1cc(C)c(CNC(=O)c2cc(-c3ccc(N4CCN(C(=O)CCCCCCCCc5cn(CCOCCOCCOCCOCCNc6cccc7c6C(=O)N(C6CCC(=O)NC6=O)C7=O)nn5)CC4)nc3)cc3c2cnn3C(C)C)c(=O)[nH]1 (stereo not drawn) and say whether its IC50 is less than 20 µM.
Criterion met

Take the molecule `Cc1cc(C)c(CNC(=O)c2cc(-c3ccc(N4CCN(C(=O)CCCCC(=O)N[C@H](C(=O)N5C[C@H](O)C[C@H]5C(=O)NCc5ccc(-c6scnc6C)cc5)C(C)(C)C)CC4)nc3)cc3c2cnn3C(C)C)c(=O)[nH]1` and say whether its IC50 is less than 20 µM.
Criterion not met

Take the molecule Cc1cc(C)c(CNC(=O)c2cc(-c3ccc(N4CCN(C(=O)CCCCCCCCc5cn(CCOCCOCCOCCOCCOCCOCCNc6cccc7c6C(=O)N(C6CCC(=O)NC6=O)C7=O)nn5)CC4)nc3)cc3c2cnn3C(C)C)c(=O)[nH]1 (stereo not drawn) and say whether its IC50 is less than 20 µM.
Criterion met

Take the molecule CC[C@H](C)n1cc(C)c2c(C(=O)NCc3c(C)cc(C)[nH]c3=O)cc(-c3ccc(N4CCN(C(=O)CCCCCCCCc5cn(CCOCCOCCOCCOCCNc6cccc7c6C(=O)N(C6CCC(=O)NC6=O)C7=O)nn5)CC4)nc3)cc21 (stereo partly drawn) and say whether its IC50 is less than 20 µM.
Criterion not met

Take the molecule Cc1cc(C)c(CNC(=O)c2cc(-c3ccc(N4CCN(C(=O)CCCc5cn(CCOCCOCCOCCOCCOCCNc6cccc7c6C(=O)N(C6CCC(=O)NC6=O)C7=O)nn5)CC4)nc3)cc3c2cnn3C(C)C)c(=O)[nH]1 (stereo not drawn) and say whether its IC50 is less than 20 µM.
Criterion not met

Take the molecule `Cc1cc(C)c(CNC(=O)c2cc(-c3ccc(N4CCN(C(=O)CCCCCn5cc(CCCCCCCCC(=O)N[C@@H](C(=O)N6C[C@H](O)C[C@H]6C(=O)NCc6ccc(-c7scnc7C)cc6)C(C)(C)C)nn5)CC4)nc3)cc3c2cnn3C(C)C)c(=O)[nH]1` and say whether its IC50 is less than 20 µM.
Criterion met

Take the molecule `Cc1cc(C)c(CNC(=O)c2cc(-c3ccc(N4CCN(C(=O)CCCCCn5cc(CCCCC(=O)N[C@@H](C(=O)N6C[C@H](O)C[C@H]6C(=O)NCc6ccc(-c7scnc7C)cc6)C(C)(C)C)nn5)CC4)nc3)cc3c2cnn3C(C)C)c(=O)[nH]1` and say whether its IC50 is less than 20 µM.
Criterion not met

Take the molecule Cc1cc(C)c(CNC(=O)c2cc(-c3ccc(N4CCN(C(=O)CCc5cn(CCOCCOCCOCCOCCOCCNc6cccc7c6C(=O)N(C6CCC(=O)NC6=O)C7=O)nn5)CC4)nc3)cc3c2cnn3C(C)C)c(=O)[nH]1 (stereo not drawn) and say whether its IC50 is less than 20 µM.
Criterion not met

Take the molecule Cc1cc(C)c(CNC(=O)c2cc(-c3ccc(N4CCN(CCCCc5cn(CCOCCOCCOCCOCCOCCNc6cccc7c6C(=O)N(C6CCC(=O)NC6=O)C7=O)nn5)CC4)nc3)cc3c2cnn3C(C)C)c(=O)[nH]1 (stereo not drawn) and say whether its IC50 is less than 20 µM.
Criterion met

Take the molecule CC[C@H](C)n1cc(C)c2c(C(=O)NCc3c(C)cc(C)[nH]c3=O)cc(-c3ccc(N4CCN(C(=O)CCCCCCCCc5cn(CCOCCOCCOCCOCCOCCNc6cccc7c6C(=O)N(C6CCC(=O)NC6=O)C7=O)nn5)CC4)nc3)cc21 (stereo partly drawn) and say whether its IC50 is less than 20 µM.
Criterion met

Take the molecule `Cc1cc(C)c(CNC(=O)c2cc(-c3ccc(N4CCN(CCNC(=O)CC56CC7CC(CC(C7)C5)C6)CC4)nc3)cc3c2cnn3C(C)C)c(=O)[nH]1` and say whether its IC50 is less than 20 µM.
Criterion not met

Take the molecule `Cc1cc(C)c(CNC(=O)c2cc(-c3ccc(N4CCN(C(=O)Cn5cc(CCC(=O)N[C@@H](C(=O)N6C[C@H](O)C[C@H]6C(=O)NCc6ccc(-c7scnc7C)cc6)C(C)(C)C)nn5)CC4)nc3)cc3c2cnn3C(C)C)c(=O)[nH]1` and say whether its IC50 is less than 20 µM.
Criterion not met

Take the molecule `CCCc1cc(C)[nH]c(=O)c1CNC(=O)c1cc(-c2ccc(N3CCN(C(C)C)CC3)nc2)cc2c1cnn2C(C)C` and say whether its IC50 is less than 20 µM.
Criterion met

Take the molecule `Cc1cc(C)c(CNC(=O)c2cc(-c3ccc(N4CCN(C(=O)Cn5cc(CCCCC(=O)N[C@@H](C(=O)N6C[C@H](O)C[C@H]6C(=O)NCc6ccc(-c7scnc7C)cc6)C(C)(C)C)nn5)CC4)nc3)cc3c2cnn3C(C)C)c(=O)[nH]1` and say whether its IC50 is less than 20 µM.
Criterion not met

Take the molecule CCN(c1cc(-c2ccc(N3CCN(C(=O)CCCCCCCCc4cn(CCOCCOCCOCCOCCNc5cccc6c5C(=O)N(C5CCC(=O)NC5=O)C6=O)nn4)CC3)nc2)cc(C(=O)NCc2c(C)cc(C)[nH]c2=O)c1C)C1CCOCC1 (stereo not drawn) and say whether its IC50 is less than 20 µM.
Criterion not met

Take the molecule `Cc1cc(C)c(CNC(=O)c2cc(-c3ccc(N4CCN(C(=O)CCCCn5cc(CCCCC(=O)N[C@@H](C(=O)N6C[C@H](O)C[C@H]6C(=O)NCc6ccc(-c7scnc7C)cc6)C(C)(C)C)nn5)CC4)nc3)cc3c2cnn3C(C)C)c(=O)[nH]1` and say whether its IC50 is less than 20 µM.
Criterion not met
